- System under test: Sushi domains (SD1/2) protein of the GABAB1a (GB1a) subunit, recombinant
- Sequence (Q9Z0U4 29-158): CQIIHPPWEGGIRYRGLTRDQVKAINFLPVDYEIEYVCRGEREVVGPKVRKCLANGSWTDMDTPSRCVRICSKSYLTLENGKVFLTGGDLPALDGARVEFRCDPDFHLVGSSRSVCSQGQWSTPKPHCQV
- Test: FP competition
pKi: −log10 of the molar value. Non-standard residues stand in square brackets, D forms with d.
Endpoint: pKi

Example results:
binder=Ac-DVWWGGADTDYAD-NH2 endpoint=pKi measured_result=5.21
binder=Ac-IVWGPTVSREDG-NH2 endpoint=pKi measured_result=4.80

I: Ac-EDDSDVWWGGAD[dT]D-NH2 […tD]
II: Ac-ETEFIAWGPTGDE[dD]-NH2 […d]
Which has the higher pKi, I or II ? Please respond with the label that marks your chosen entry.
II

A: Ac-EEDDSDVWWGGADTD-NH2
B: Ac-KDDSDVWWGGADTD-NH2
C: Ac-PTTETEFIAWGPTGDED-NH2
D: Ac-SSQYPWAIVWGPTVSREDG-NH2
E: Ac-EEDDSDVWWGGAD-NH2
Write the entries in order, lowest recorded pKi first. Answer format: the labels, in the requested order.
D, B, E, A, C

a: Ac-EDDSDVWWGGHDTD-NH2
b: Ac-ETEFIAWGPTADED-NH2
From the items above, decide which of a and b has the lower pKi reading. Pick one; state its label.
a
(a: 6.46, b: 7.70)

1: Ac-EDDWDVWWGGADTD-NH2
2: Ac-ETEFIAWGPTGAED-NH2
Which of the two items, 1 and 2 , has the greater recorded pKi? State the label of the item chosen.
2

The reported numbers originate from patent US20260193293A1.
